test system: HT29 colon; assay: NCI-60 one-dose screen, 48 h; details: 10 µM unless noted
Compounds without any hit were thinned out: in the full panel of roughly 83,000, 20% have a hit. Active and inactive are the calls of the source. How the source made its calls: active means growth percent below 10; inactive means the rest.
Pick one: active, inactive

INSERT INTO results (molecule, class_name) VALUES
  ('COc1cc(C(=O)/C=C/c2c(-c3cccs3)nc3sc(C)cn23)cc(OC)c1OC', 'active'),
  ('Oc1ccc(C(c2ccc(O)cc2)c2ccc(Cl)cn2)cc1', 'inactive'),
  ('COC(=O)[C@@H](Cc1c[nH]c2ccccc12)NC[C@@H](O)CN1C(=O)/C(=C\c2cc(OC)c(OC)c(OC)c2)c2ccccc21', 'inactive');

Ask | How did this test come out for Cc1ccc(Nc2oc(-c3ccccc3)nc2[P+](c2ccccc2)(c2ccccc2)c2ccccc2)cc1 ?
Reply | active

Ask | How did this test come out for COc1ccc(/C=C\c2cc(OC)c(OC)c(OC)c2)cc1OCC(=O)Nc1nc2ccccc2s1 ?
Reply | active

Ask | How did this test come out for CCN1C(=O)N(CC)C2C1NN=c1s/c(=C3\C(=O)N(C)c4ccccc43)c(=O)n12 (stereo not drawn) ?
Reply | inactive

Ask | How did this test come out for Cc1nc2sc(C(=O)Nc3ccccc3)c(N)c2cc1C(O)c1ccccc1 (stereo not drawn) ?
Reply | inactive

Ask | How did this test come out for Cc1ccc(S(=O)(=O)c2nc(-c3ccccc3)oc2S(C)=O)cc1 (stereo not drawn) ?
Reply | active

Ask | How did this test come out for COc1ccc(C(=O)/C=C/c2ccc(C)cc2)cc1S(N)(=O)=O ?
Reply | inactive

Ask | How did this test come out for CN(C)C(=S)NN=C(c1ccccn1)c1ccccn1 ?
Reply | inactive

====

test system: TK-10 renal; assay: NCI-60 one-dose screen, 48 h; settings: 10 µM unless noted
This is part of a sample that, as a whole, favours compounds with a hit. Of some 83,000 tested, about 20% had one in any assay. Active and inactive are the calls of the source. The calls were made as follows: active = growth percent below 10; inactive = the rest.
Pick one: t for active, f for inactive

Example cases with answers are listed next.
INSERT INTO results (compound, study_system, class_name) VALUES
  ('Cc1c(-c2cnc3ccc(Cl)cc3c2C(=O)O)nnn1-c1ccc(Cl)cc1', 'TK-10 renal', 'f'),
  ('O=c1c(/C=C/c2c(O)ccc3ccccc23)nnc2sc(-c3cccc([N+](=O)[O-])c3)nn12', 'TK-10 renal', 'f');

Ask | How did this test come out for OC1CSSC1Cn1cnc2c(Nc3ccc(F)c(Cl)c3)ncnc21 (stereo unspecified) ?
Reply | f

Ask | How did this test come out for CCOC(=O)c1cc(C(=O)c2cc(OC)cc(OC)c2)n2ncccc12 ?
Reply | f

Ask | How did this test come out for CCN1CCN(c2nc(NNC(=O)c3ccc(OC)cc3)nc(N3CCN(C(c4ccccc4)c4ccccc4)CC3)n2)CC1 ?
Reply | f

Ask | How did this test come out for Cc1ccc(C(F)(F)F)cc1N1CCN(C(=O)[C@H]2C[C@H]2c2ccc(C(F)(F)F)nc2)CC1 ?
Reply | f

Ask | How did this test come out for C=C1/C(=C\C=C2/CCC[C@]3(C)[C@@H]([C@H](C)CCCC(C)(C)O)CC[C@@H]23)C[C@@H](OC(=O)CBr)C[C@@H]1O ?
Reply | f

Ask | How did this test come out for CCCCC1=C(Br)C(=O)c2ncccc2C1=O ?
Reply | f

Taken from PubChem BioAssay (NCI).
